Assign IC50 to each entry below.
# ASSAYED_TARGET: SIK2 (Homo sapiens, UniProt Q9H0K1)
# Construct: purchased ThermoFisher Scientific PV4792
# Sequence (Q9H0K1 whole entry): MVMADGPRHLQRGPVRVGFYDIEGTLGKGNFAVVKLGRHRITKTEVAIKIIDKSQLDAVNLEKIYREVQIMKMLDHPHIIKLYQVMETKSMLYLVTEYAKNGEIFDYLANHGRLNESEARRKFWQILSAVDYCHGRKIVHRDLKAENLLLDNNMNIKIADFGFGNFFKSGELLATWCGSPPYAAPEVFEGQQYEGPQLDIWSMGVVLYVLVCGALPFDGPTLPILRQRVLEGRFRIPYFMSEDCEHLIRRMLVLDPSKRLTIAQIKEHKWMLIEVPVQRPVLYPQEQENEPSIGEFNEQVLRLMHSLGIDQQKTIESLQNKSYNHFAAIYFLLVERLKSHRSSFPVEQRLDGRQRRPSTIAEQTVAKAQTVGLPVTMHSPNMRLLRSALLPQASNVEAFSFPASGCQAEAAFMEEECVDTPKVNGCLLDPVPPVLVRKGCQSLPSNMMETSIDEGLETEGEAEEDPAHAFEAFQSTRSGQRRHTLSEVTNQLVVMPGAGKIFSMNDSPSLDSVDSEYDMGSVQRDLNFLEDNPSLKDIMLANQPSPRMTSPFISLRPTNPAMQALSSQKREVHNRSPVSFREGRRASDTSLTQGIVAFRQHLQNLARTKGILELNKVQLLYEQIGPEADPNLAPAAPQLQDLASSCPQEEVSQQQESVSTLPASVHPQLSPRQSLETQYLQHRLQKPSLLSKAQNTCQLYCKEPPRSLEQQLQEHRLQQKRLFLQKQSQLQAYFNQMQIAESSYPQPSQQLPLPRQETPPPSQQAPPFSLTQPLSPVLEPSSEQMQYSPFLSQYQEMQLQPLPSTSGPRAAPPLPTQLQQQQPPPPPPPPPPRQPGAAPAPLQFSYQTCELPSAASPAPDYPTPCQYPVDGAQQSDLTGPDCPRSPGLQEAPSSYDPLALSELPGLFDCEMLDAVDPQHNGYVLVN
# PROTOCOL_SUMMARY: ADP-Glo kinase assay, SIK2
# Format: biochemical

Reported IC50 for COc1cc(-c2cnc3cc(C(C)(C)C#N)ccn23)cc(OC(F)F)c1C(=O)N1CC(C(F)(F)F)C1 [Cpd 76] was 100 to 500 nM

Sample COc1cc(-c2cnc3cc(C4CN(C(C)=O)C4)c(F)cn23)cc(OC(F)F)c1C(=O)NC1CC1 [Cpd 169] ; IC50 observed: 100 to 500 nM

The reported IC50 of the compound COc1cc(-c2cnc3cc(C4CCOCC4)ccn23)cc(OC(F)F)c1C(=O)NC1CC1 [Cpd 108] was 10 to 100 nM

// COc1cc(-c2cnc3cc(C(C)(O)CC#N)ccn23)cc(OC(F)F)c1C(=O)NC1CC1 (centres unmarked) [Cpd 179] : IC50 value = 0.01 to 10 nM

Please go through the list and note IC50 for each compound.
1. COc1cc(-c2cnc3cc(C(C)(O)C(F)(F)F)ccn23)cc(OC(F)F)c1C(=O)NC1CC1 (centres unmarked) [Cpd 129]
2. COc1cc(-c2cnc3cc(C(C)(C)CN4CCCC4)ccn23)cc(OC(F)F)c1C(=O)NC1CC1 [Cpd 161]

(A)
> 500 nM
> 500 nM

Batch: IC50 for all items listed.
1. CCNC(=O)c1c(OC)cc(-c2cnc3cc(C(C)(C)C#N)ccn23)cc1OC [Cpd 30]
2. COc1cc(-c2cnc3cc(C(C)(C)C#N)ccn23)cc(OC(F)F)c1C(=O)N1CCOCC1 [Cpd 48]

(A)
> 500 nM
> 500 nM
